- measurement_notes: yeast display, Sf9 membrane polyspecificity reagent, FACS + sequencing; frameworks hold sequencing errors
measure: polyreactivity (PSR sort gate)

Recorded polyreactivity (PSR sort gate), per entry:
>>> measured_result("QVQIVESGGGLVQPGGSLRLSCAASGRIFGRNAMGWYRQAPGKEWELVAAITTSASRTYYADSVKGRFTISRDNAKNTVYLQMNSLKPEDTAVYYCAARPSWYWYKGDYWGQGTQVTVSS")
"high polyreactivity"
>>> measured_result("QVQIVESGGGLVQAGGSHRLSCAASVFTFGGNVMGWYRQAPGKEREFVAAISSSGGSTYYADSVKGRFTISRDNEKNTVFLQINSLKPDDTAVYYCAKYAVVYQYRYYHWGQGTQVTVSS")
"high polyreactivity"
>>> measured_result("QVQLVESGGGLVQAGGSLRLSCAASGSTFVRYAMGWYRQAPGKEREFVASITCRGGSTYYADSVKGRFTITRDNAKNTVYLQMNSLKPEDTAVYYCAARGREWYYWGQGTQVTVSS")
"high polyreactivity"
>>> measured_result("QVQLVESGGGLVQAGGSLRLSCAASGRTFRLYAMGWYRQAPGKERELVAAISWRGGSTYYADSVKGRFTISRDNAKNTVYLQMNSLKPEDTAVYYCAAGTSRHLSNGYYYWGQGTQVTVSS")
"high polyreactivity"
>>> measured_result("QVQLVETGGGLFQAGGSLRISCAASGSTFYTYAMGWYRQSPGKERELVAAITRRGGRTYYADSVKGRFTISRDNAKNTVYLQMNSLKPEDTAVYYCAADSRTNGYDYWGQGTQVTVSS")
"high polyreactivity"
>>> measured_result("QVQLVESGGGLVQAGGSLRLSCAASGRIFPYKAMGWYRPAPGKERELVAAITSSGGSTYYADSVKGRFTISRDNAKNTVYLQMNSLKPEDTAVYYCNKDIERYVRIYDSWGQGTQVTVSS")
"low polyreactivity"
>>> measured_result("QVQLVESGGGLVQAGGSLRLSCAASGRTLSYYAMGWYRQAPGKEREFVAAITGSGGSTYYADSVKGRFTISRDNAKNNVYLQMNSLKPEDTAVYYCNATGLGVFTVEYYYWGQGTQVTVSS")
"low polyreactivity"
>>> measured_result("QVQLVESGGGLVQAGGRHRLSCAASGRTFGVYAMGWYRQAPGKEREFVGVISWSDDSTYYADSVKGRFTISRDNAKNTVSLQMNSLKPEDTAVYYCNADDYLVYSGSHYGYWGQGTQVTVSS")
"low polyreactivity"
>>> measured_result("QVQLVESGGGLVQAGGSLRLSCAASGFTFTNNAMGWYRQAPGKERELVAAIRRSGTNTYYADSVKGRFTISRDNAKNPVYLQMNSLKPEDTAVYYCATDGYEYTDYGSSGYDYWGQGTQVTVSS")
"low polyreactivity"
>>> measured_result("QVQLVESGGGLVQAGGSRRLSCAASGGIFNYYTMGWYRQATGKERELVAAINSSGGNTHYADSVKGRFTISRDNAKNTVYLQMYSLKPEDTAVYYCNADARSVWFYRVDYWGQGTQVTVSS")
"low polyreactivity"

Continue with the next sequence.
Read off the recorded polyreactivity (PSR sort gate) for QVQLVESGGGLVQAGGSLRLSCAASGSTFRYYAMGWYRQAPGKERELVAAITRSGGSTSYADSVKGRFTISRDNAKNTVYLQMNSLKPEDTAVYYCAARFYRPYYARQGYNYWGQGTQVTVSS high polyreactivity
